Data credit: patent US11820822B2

tested on: B16F10-Cas9 cells pulsed with SIINFEKL peptide, co-cultured with OT-I T cells; assay: Genome-scale CRISPR-Cas9 screen, selection with OT-I T cells; format: cell-based, mouse; details: Table 3; B16F10-Cas9 cells pulsed with SIINFEKL, co-cultured with OT-I T cells 1:1 for one day; negative = depleted, positive = enriched
Mark Y for reported OT1 (sgRNA Log(2) fold change, OT-I selection versus control T cells) of -2 or greater; mark N for anything smaller.

# count of solved cases: 3
POLYMER SEQUENCE | GROUP
TGTGAATGCTATGACGAGCT (chemistry not fully specified) | N
CGGATGGCCACACGTAACAG (chemistry not fully specified) | Y
GAATCCTCCAGAAGGAATCG (chemistry not fully specified) | Y

Check this sequence for OT1 (sgRNA Log(2) fold change, OT-I selection versus control T cells) at or above -2: ACCTCCGAATGATCAATGGG (chemistry not fully specified)
N

// inclusive: OT1 (sgRNA Log(2) fold change, OT-I selection versus control T cells) at least -2? input: TCCCTTTGATGTGTTCCACG (chemistry not fully specified)
Y

Does CATGCAATACATGCCAAAGG (chemistry not fully specified) have a reported OT1 (sgRNA Log(2) fold change, OT-I selection versus control T cells) of at least -2?
N

Please indicate if the recorded OT1 (sgRNA Log(2) fold change, OT-I selection versus control T cells) for TGGAACCTCCTGATCCGCTG (chemistry not fully specified) meets or exceeds -2.
N

Test whether the sequence CCTGGGTACCAACTGACGAA (chemistry not fully specified) records OT1 (sgRNA Log(2) fold change, OT-I selection versus control T cells) of -2 or higher.
N

Test whether the sequence AAACAAGAGCACACTCCCCG (chemistry not fully specified) records OT1 (sgRNA Log(2) fold change, OT-I selection versus control T cells) of -2 or higher.
N

Please check the record GTAGACAACAACATTCGCAG (chemistry not fully specified) and state if its OT1 (sgRNA Log(2) fold change, OT-I selection versus control T cells) is at or above -2.
Y

Determine whether measured OT1 (sgRNA Log(2) fold change, OT-I selection versus control T cells) meets or exceeds -2 for CCAAACACCCCACATATGGT (chemistry not fully specified)
N

###

tested on: B16F10-Cas9 cells pulsed with SIINFEKL peptide, co-cultured with OT-I T cells; experiment: Genome-scale CRISPR-Cas9 screen, selection with OT-I T cells; assay type: cell-based, mouse; settings: Table 3; B16F10-Cas9 cells pulsed with SIINFEKL, co-cultured with OT-I T cells 1:1 for one day; negative = depleted, positive = enriched
MEASUREMENT NAME: OT1 (sgRNA Log(2) fold change, OT-I selection versus control T cells)
One number for each entry.

POLYMER SEQUENCE | RESULT
TCTTAAAGCTACGGTGTAAG (chemistry not fully specified) | -2.41
GCACTGCTCTCATAACCCAT (chemistry not fully specified) | -0.77

For the next question, use this sequence.
Looking up TTACACGACCCGAATAGCGA (chemistry not fully specified) , I see its OT1 (sgRNA Log(2) fold change, OT-I selection versus control T cells) listed as -2.14

###

test system: B16F10-Cas9 cells co-cultured with Pmel-1 T cells; assay: Genome-scale CRISPR-Cas9 screen, selection with Pmel-1 T cells; assay type: cell-based, mouse; settings: Table 3; B16F10-Cas9 cells pre-treated with IFNγ, co-cultured with Pmel-1 T cells 1:1 for three days; negative = depleted, positive = enriched
MEASUREMENT NAME: Pmel+ (sgRNA Log(2) fold change, Pmel-1 selection versus control T cells)
One number for each entry.

Example entries and their recorded answers appear below.
POLYMER SEQUENCE | SUBJECT OF TEST | RESULT
CATGCAATACATGCCAAAGG (chemistry not fully specified) | B16F10-Cas9 cells co-cultured with Pmel-1 T cells | -0.22
GCAAATGTAGAAATGTCGTG (chemistry not fully specified) | B16F10-Cas9 cells co-cultured with Pmel-1 T cells | -0.65

Lab note: TGGACATGAGCCATATGTTG (chemistry not fully specified) gave Pmel+ (sgRNA Log(2) fold change, Pmel-1 selection versus control T cells) of 3.35
